Molecular target: Transitional endoplasmic reticulum ATPase (Homo sapiens)
Assay: inhibition of purified VCP ATP hydrolysis – biochemical, dose response (AID 463184)
Conditions: purified p97 ATPase, Kinase-Glo luminescence
Active and inactive are the calls of the source.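 The calls were made as follows: active = IC50 of 10 microM or lower; inactive = the rest.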
Return exactly one item of active, inactive

Illustrative cases are given below, each with its answer.
• Cc1c(Cl)cccc1Nc1nc(N)nc(CCl)n1 = inactive
• Clc1cccc(CNc2nc(NCc3ccccc3)c3ccccc3n2)c1 = active
• Fc1ccccc1CNc1nc(NCc2ccccc2)c2ccccc2n1 = active

Asked: What did the test return for Nc1nc(CCl)nc(Nc2ccc(Oc3ccccc3)cc2)n1 ?
Given back: inactive

Asked: Same thing, different compound: c1ccc(CNc2nc(NCc3ccccc3)c3ccccc3n2)cc1
Given back: active

Asked: Note, next up: Brc1ccccc1CNc1nc(NCc2ccccc2)c2ccccc2n1
Given back: active
